Attribution: paper PMC5164911

We begin with a simple list: items and their reported Kd.
Molecular target: PDIA3 (Homo sapiens)
Construct: made in house; host or cells: E. coli BL21 (vector pET21)
Sequence (P30101 25-505): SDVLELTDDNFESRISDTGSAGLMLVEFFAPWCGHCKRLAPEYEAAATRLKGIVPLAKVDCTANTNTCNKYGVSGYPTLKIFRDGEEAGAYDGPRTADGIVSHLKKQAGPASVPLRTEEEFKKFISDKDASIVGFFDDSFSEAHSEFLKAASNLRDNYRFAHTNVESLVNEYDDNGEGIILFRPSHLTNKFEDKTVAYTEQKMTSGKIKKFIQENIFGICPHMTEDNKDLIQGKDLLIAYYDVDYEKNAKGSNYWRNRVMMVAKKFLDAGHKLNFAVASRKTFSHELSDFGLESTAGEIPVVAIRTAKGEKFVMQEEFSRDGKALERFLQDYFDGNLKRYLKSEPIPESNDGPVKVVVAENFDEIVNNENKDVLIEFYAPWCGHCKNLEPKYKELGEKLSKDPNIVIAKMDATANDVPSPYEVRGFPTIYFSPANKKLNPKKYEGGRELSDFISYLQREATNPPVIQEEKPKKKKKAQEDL
Test: Fluorescence quenching titration of PDIA3 intrinsic fluorescence
Format: binding
Conditions: K d = 1/K b; reduced PDIA3, pH 7.4, 25°C; read-out: dissociation constant (K d)
Kindly provide the numeric value in µM only, without the unit symbol.

Compound	Tested Target	Experimental Result
C[C@@H]1O[C@@H](Oc2c(-c3ccc(O)c(O)c3)oc3cc(O)cc(O)c3c2=O)[C@H](O)[C@H](O)[C@H]1O	PDIA3 (Homo sapiens)	31

Look up Kd for this compound: O=c1cc(-c2ccc(O)cc2)oc2cc(O[C@@H]3O[C@H](CO)[C@@H](O)[C@H](O)[C@H]3O)cc(O)c12 [Apigenin-7-glucoside, apigenin-7-glucoside] 21.1

Record: COc1ccc(-c2cc(=O)c3cc(OC)ccc3o2)c(OC)c1 55.2

Record: O=c1cc(-c2ccc(O)cc2)oc2cc(O)cc(O)c12 17

Record: COc1ccc(-c2cc(=O)c3c(OC)c(OC)c(OC)cc3o2)cc1O 11.1

Record: O=c1c(O)c(-c2ccc(O)c(O)c2)oc2cc(O)cc(O)c12 25.6

Record: O=c1cc(-c2ccc(O)c(O)c2)oc2cc(O[C@@H]3O[C@H](CO)[C@@H](O)[C@H](O)[C@H]3O)cc(O)c12 [Luteolin-7-glucoside, luteolin-7-glucoside] 28.9

Record: O=C1C[C@@H](c2ccc(O)cc2)Oc2cc(O)cc(O)c21 57.8

Record: O=c1c(-c2ccc(O)cc2)coc2cc(O)cc(O)c12 41

Record: O=c1c(O)c(-c2ccc(O)c(O)c2)oc2cc(O)ccc12 27.1

Record: COc1cc(O)c2c(=O)c(O)c(-c3ccc(O)c(O)c3)oc2c1 33.2

Record: COc1c(-c2ccc(O)c(O)c2)oc2cc(O)cc(O)c2c1=O 21.9

Record: Oc1cc(O)c2cc(O)c(-c3ccc(O)c(O)c3)[o+]c2c1 34.2

Record: COc1cc(-c2oc3cc(O)cc(O)c3c(=O)c2O)ccc1O 30.8

Record: COc1ccc(-c2cc(=O)c3c(O)c(OC)c(OC)cc3o2)cc1O 10.3

Record: O=c1c(O)c(-c2ccc(O)cc2O)oc2cc(O)cc(O)c12 39
